// provenance: patent US11377425B1

Target: human IL-17AA (Homo sapiens, UniProt Q16552)
Sequence (Q16552 24-155): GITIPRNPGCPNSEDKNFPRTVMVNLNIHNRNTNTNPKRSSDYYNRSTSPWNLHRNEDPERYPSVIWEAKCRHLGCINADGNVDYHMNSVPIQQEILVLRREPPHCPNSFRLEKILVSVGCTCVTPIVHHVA
Test: IL-8 release assay in human epithelial keratinocytes adult (HEKa)
Details: HEKa cells, 3 ng/mL HEK-human IL-17AA + 10 ng/mL human TNFalpha; read-out: Rel EC50 IL-8 release assay
For each record, write down the corresponding EC50.

EC50 reading for Cc1n[nH]c(C)c1-c1ccc(NC(=O)[C@@H](NC(=O)c2ccnn2C)C(C)C2CCCC2)cc1 (mixture of isomers) [Example 221] : 100 to 1000 nM

EC50 reading for Cc1nc[nH]c1-c1ccc(NC(=O)[C@@H](NC(=O)c2ccnn2C(C)C)C(C2CC2)C2CC2)cc1 [Example 379] : > 1000 nM

EC50 reading for Cc1n[nH]c(C)c1-c1ccc(NC(=O)[C@@H](NC(=O)c2c[nH]c3cnccc23)C2CCCCC2)cc1 [Example 64] : 100 to 1000 nM

EC50 reading for Cc1n[nH]c(C)c1-c1ccc(NC(=O)[C@@H](NC(=O)c2c(C)ncn2C)C2CCCCC2)cc1 [Example 50] : > 1000 nM

EC50 reading for Cc1n[nH]c(C)c1-c1ccc(NC(=O)[C@@H](NC(=O)c2ccnn2C2CCC2)C2CCCCC2)cc1 [Example 108] : < 100 nM

EC50 reading for CCC(C1CCCCC1)C(NC(=O)c1ccnn1C)C(=O)Nc1ccc(-c2c(C)n[nH]c2C)cc1 (single isomer, unassigned) [Example 257] : < 100 nM

EC50 reading for Cn1cncc1-c1ccc(NC(=O)[C@@H](NC(=O)OC(C)(C)C)C(c2ccccc2)c2ccccc2)cc1 [Example 101] : > 1000 nM

EC50 reading for Cc1[nH]nc(CO)c1-c1ccc(NC(=O)[C@@H](NC(=O)OC(C)(C)C)C2CCCCCC2)cc1 [Example 439] : 100 to 1000 nM

EC50 reading for Cc1n[nH]c(C)c1-c1ccc(NC(=O)[C@@H](NC(=O)c2ccccc2)C(C2CC2)C2CC2)cc1 [Example 167] : 100 to 1000 nM

EC50 reading for Cc1n[nH]c(C)c1-c1ccc(NC(=O)[C@@H](NC(=O)c2conc2C(C)C)C2CCC3(CC2)CC3)cc1 [Example 263] : 100 to 1000 nM

---

biological target: human IL-17AA (Homo sapiens); assay: IL-8 release assay in human epithelial keratinocytes adult (HEKa); details: HEKa cells, 3 ng/mL HEK-human IL-17AA + 10 ng/mL human TNFalpha; read-out: Rel EC50 IL-8 release assay
For each record, write down the corresponding EC50.

Form field EC50 for item Cc1ncn(C)c1-c1ccc(NC(=O)[C@@H](NC(=O)c2ccnn2C(C)C)C(C2CC2)C2CC2)cc1O [Example 363] on human IL-17AA (Homo sapiens): < 100 nM

Form field EC50 for item Cc1n[nH]c(C)c1-c1ccc(NC(=O)[C@@H](NC(=O)c2ccnn2C(C)CO)C(C)C(C)(C)C)cc1 (single isomer, unassigned) [Example 178] on human IL-17AA (Homo sapiens): < 100 nM

Form field EC50 for item Cc1n[nH]c(C)c1-c1ccc(NC(=O)[C@@H](NC(=O)N2CCCCC2CCCO)C2CCCCC2)cc1 (single isomer, unassigned) [Example 460] on human IL-17AA (Homo sapiens): 100 to 1000 nM

Form field EC50 for item Cc1n[nH]c(C)c1-c1ccc(NC(=O)[C@@H](NC(=O)OC2CCC2)C(C2CC2)C2CC2)cc1 [Example 428] on human IL-17AA (Homo sapiens): < 100 nM

Form field EC50 for item Cn1cncc1-c1ccc(NC(=O)[C@@H](NC(=O)OC(C)(C)C)C(C2CCCCC2)C2CCCC2)cc1 (single isomer, unassigned) [Example 313] on human IL-17AA (Homo sapiens): > 1000 nM

Form field EC50 for item Cc1n[nH]c(C)c1-c1ccc(NC(=O)[C@@H](NC(=O)c2ccnn2[C@@H](C)CO)[C@@H]2C[C@H](C)C[C@H](C)C2)cc1 [Example 141] on human IL-17AA (Homo sapiens): < 100 nM

Form field EC50 for item Cc1n[nH]c(C)c1-c1ccc(NC(=O)C(NC(=O)c2ccnn2C(C)C)C(C2CC(F)(F)C2)C2CC(F)(F)C2)cc1 (racemic) [Example 294] on human IL-17AA (Homo sapiens): 100 to 1000 nM

Form field EC50 for item Cc1n[nH]c(C)c1-c1ccc(NC(=O)[C@@H](NC(=O)c2ccnn2[C@@H](C)CO)C(C)C2CCC2)cc1 (single isomer, unassigned) [Example 173] on human IL-17AA (Homo sapiens): < 100 nM

Form field EC50 for item Cc1n[nH]c(C)c1-c1ccc(NC(=O)[C@@H](NC(=O)c2cncn2C)C2CCCCC2)cc1 [Example 49] on human IL-17AA (Homo sapiens): > 1000 nM

Form field EC50 for item Cc1n[nH]c(C)c1-c1ccc(NC(=O)[C@@H](NC(=O)OC2CC2)C2CCCCC2)cc1O [Example 424] on human IL-17AA (Homo sapiens): 100 to 1000 nM

Form field EC50 for item Cc1n[nH]c(C)c1-c1ccc(NC(=O)[C@@H](NC(=O)c2ccnn2CCC(F)F)C(C2CC2)C2CC2)cc1 [Example 215] on human IL-17AA (Homo sapiens): < 100 nM

Form field EC50 for item CC(C)n1nccc1C(=O)N[C@H](C(=O)Nc1ccc(-c2c(C(C)(C)O)ncn2C)cc1)C(C1CC1)C1CC1 [Example 448] on human IL-17AA (Homo sapiens): 100 to 1000 nM
